Origin of values: PubChem BioAssay

Assay: binders of probe aHhip on microarray, primary screen, stem cell growth factor project, biochemical, small-molecule microarray, fluorescence 635/667 (AID 1087);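 note: score merges spot fluorescence at 667nm with spot signal to noise ratio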
Conditions: higher = more signal
Recorded composite z-score by entry
# output: bare number, no unit

COc1ccc(C#Cc2ccc3c(c2)[C@]2(C(=O)N3)[C@H](C(=O)O)[C@H]3C(=O)O[C@H](c4ccccc4)[C@H](c4ccccc4)N3[C@@H]2c2ccccc2OCCO)cc1 : -0.583
CC=CC(O)C1C=CC2C(=O)NC(=O)C2N1Nc1ccc(Cl)cc1Cl (centres undefined) : -0.0645
CCN(CC)c1ccc(N2CC=CC34O[C@@H]5C=CCCOC(=O)C5[C@H]3C(=O)N(C(C)CO)[C@@H]4C2=O)cc1 (some centres undefined) : -0.34

Here's the next entry for you.
**Q:** Note composite z-score for the molecule shown: CCCCN1CC=CC23O[C@@H]4/C=C\CCCOC(=O)C4[C@H]2C(=O)N(C(CO)C(C)C)[C@@H]3C1=O (some centres undefined)
**A:** -0.236
